# Tested on: CrsR (response regulator of CrsRK) (Actinosynnema pretiosum X47), ORF:a04a2703
# Sequence: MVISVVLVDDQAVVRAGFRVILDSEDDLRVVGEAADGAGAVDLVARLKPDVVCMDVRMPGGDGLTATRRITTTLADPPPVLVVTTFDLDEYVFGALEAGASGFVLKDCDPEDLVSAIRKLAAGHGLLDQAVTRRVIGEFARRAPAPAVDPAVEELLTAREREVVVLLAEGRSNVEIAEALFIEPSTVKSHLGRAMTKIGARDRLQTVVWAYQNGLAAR
# assay_comment: EMSA
# experimental_context: EMSA: 50-100 fmol probe, 0.5-1 ug CrsR, binding buffer with poly(dI-dC) (salt and pH not stated), 20 min at room temperature, 8% native PAGE; protein dialyzed …
recorded_endpoint: binding

CGGACAGACCGATCCCCGAGTCGTGCGGGCCCGAGCCGTGGACGCGCGGGCCGTGGACGCGCGAGCCGCGACCGCCGCCCCCACGACCGCCGCCCCCACGACCGCCGCTCCGGCGACCACTGCTCCGGCGACCGCCGCTCCGGCGACCGCCGCTCCGGCGACCGCCGCTCCGGCGACCGCCGCCCCCACGACCACTCCTCCGCGCCCCCGCGTCCCCCAGGCCCCCGCGCCCCACCGGCACGTTCCGGGCGCGACCTACGACCGGGCCGTGCTGTTCGACCTCGACGGG (double strand) [asm45 promoter probe (asm45-47)] ... binds

---

# Test system: CrsR (response regulator of CrsRK) (Actinosynnema pretiosum X47), ORF:a04a2703
# Sequence: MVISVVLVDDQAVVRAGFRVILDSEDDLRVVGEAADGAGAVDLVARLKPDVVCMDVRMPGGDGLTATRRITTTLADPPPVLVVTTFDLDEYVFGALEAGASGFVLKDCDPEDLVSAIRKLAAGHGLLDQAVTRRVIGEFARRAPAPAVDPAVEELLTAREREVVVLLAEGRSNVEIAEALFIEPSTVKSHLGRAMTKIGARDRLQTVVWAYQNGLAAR
# assay_comment: EMSA
# experimental_context: EMSA: 50-100 fmol probe, 0.5-1 ug CrsR, binding buffer with poly(dI-dC) (salt and pH not stated), 20 min at room temperature, 8% native PAGE; protein dialyzed …
recorded_endpoint: binding

In the examples that follow, each entry is paired with its recorded binding.
CCGGTTCCCGTTCATCCAATTGTGCGCACGACCGCGCCGCCGTGCCCGCGTGCTGCGGTGATGGCCTGGGAACAGGGGGGATTAGGGGGAGGTCAAGGGGGTTGGTCGGGATCTGCGGAATCGGTAGCGTCGAATTCCGAAAGCCGGCCGCGGTGAATTCCCCCGCGCCATTTCCGCGAACGACGGGACAGGGGCTCATGGGCA (double strand) [asm43 promoter probe (asm43-44)] ... binds
TGACGGCGTCGGGTGAGGCCGCCGCTGGCCCTGGGACGGCGCTGCGCGCCCCCTCGGACCCACCGGAGCCGCCACCACCGCTTGTCCCCTTCCACCGGGTGGGGCGCGGTCGGTAATCCGGCGGCAATTCCTTCCCCCGTCCGGGCTAGCCAGGCCCGTGCGCCCGCGTCGCGCACGGGCCAAGGTGGGTGGCTGCGCGGATGACCGGGCCCCCGAACCGGATGTGGGAGAGATGCTGCGAAGCGAC (double strand) [asmA promoter probe] ... no binding
CGGTCCACCAGCCGCATCCCTCGCCTCCCCCGCGTCCGCCCCGCCGACCTTCAGGCATGTCAACAGCCCTGTCAGTCGTCTTGTCCACGCCCCGACCACCGCACCCCCACTGGCCGCCCACCCGCGCCGGGAAAACCACGAAGTCCCCTGCCGCGCGGGCGTCCCAGGTCGGACACTCCTGAGCGCACCCCCGCACCCGTTCCAGGAGGC (double strand) [asm7 promoter probe] ... no binding
GGTCGGGCACCAGGAACACCTCGCAGAGCGCAAAGACGTGAGTGGACGGTGCGATTGTGCTGACGGCCTGACCCCGGTGGTGGGGACCGCGGCGAACCGGCTGAACGCAGGGGGGACCTAGGGGGGCGTCAGGGGGTTGGGGGGCTCTTCCGGCCGCCGTTAGCTTCGGGCCGCGCACCGGCCCCCGGAGAGCGCGCCGGACCGAGAGCAGAGACGAGGGCGACCGACCGTGCACCTGAAGGCCCCGCAGAAGCT (double strand) [asm24 promoter probe] ... no binding

Please examine the following record next.
Identify measured binding obtained with CrsR (response regulator of CrsRK) (Actinosynnema pretiosum X47), ORF:a04a2703 for GGAGGGACGAGCGGAGACCGGGTCGCGGGACTCCACTTCGGACGGTAGGGCACGCGGGCGCCGTTGGCAGTTGCCGCTTCCACGGCTGGCGAACAAAGCGGTAATCCCTTGCGCCACAGGCGATTGACACCCCGGCGAGGCCCTGGTTTCACTGCTGTCCGCACGTCACCGGCGCGAGGAGGCCCCCGTGAAGTACATGCTGCTCATCCAC (double strand) [asm21 promoter probe] . binds
